# Assay text: TOX21_p53_BLA_p5_viability: Viability Assessment in the Tox21 HCT-116 p53 Agonism Beta-lactamase Assay, Phase 5 (AID 2283600)
Results filed as inconclusive are left out. Active and inactive are the calls of the source. The calls were made as follows: active = hit-call score of the fitted dose curve at least 0.9, where 1 is the maximum; inconclusive = response in the unintended direction; inactive = score below 0.9.
Possible outcomes: class 1 = active, class 0 = inactive

Compound	Assigned class
Nc1ccccc1S(=O)(=O)c1ccccc1	class 0
O=C(O)/C=C/c1ccc(Cn2ccnc2)cc1	class 0
Oc1c(Br)cc(Br)c2cccnc12	class 0
Cc1ccccc1S(N)(=O)=O	class 0
CC(C)=CCC/C(C)=C/CC/C(C)=C/CC/C=C(\C)CC/C=C(\C)CCC=C(C)C	class 0
CC[C@H]1OC(=O)[C@H](C)[C@@H](O[C@H]2C[C@@](C)(OC)[C@@H](O)[C@H](C)O2)[C@H](C)[C@@H](O[C@@H]2O[C@H](C)C[C@H](N(C)C)[C@H]2O)[C@](C)(O)C[C@@H](C)[C@@H]2N[C@@H](COCCOC)O[C@@H]([C@H]2C)[C@]1(C)O	class 0
O=S(=O)(O)C(F)(F)F	class 0
CO[C@@H]1[C@@H](OC(N)=O)[C@@H](O)[C@H](Oc2ccc3c(O)c(NC(=O)c4ccc(O)c(CC=C(C)C)c4)c(=O)oc3c2C)OC1(C)C	class 0
CCCCCCCCCCCl	class 0
CCOC(=O)COc1ccc2c(=O)cc(-c3ccccc3)oc2c1	class 0
NCCc1ccc(O)c(O)c1	class 0
CCCc1ncc(C[n+]2ccccc2C)c(N)n1	class 0
COc1ccc(-c2noc(CC(=O)O)c2-c2ccc(OC)cc2)cc1	class 0
O=C(NN=Cc1ccc([N+](=O)[O-])o1)c1ccc(O)cc1	class 0
CSc1ccc(/C=C2/C(C)=C(CC(=O)O)c3cc(F)ccc32)cc1	class 1
CCC(C)(CCC(C)C)C(=O)[O][Sn]([CH3])([CH3])[O]C(=O)C(C)(CC)CCC(C)C (configuration not stated)	class 0
Cc1cc(=O)oc2cc(O)cc(O)c12	class 0
COc1c2occc2cc2ccc(=O)oc12	class 0
COS(=O)(=O)C(F)(F)F	class 0
O=C(NCCNCC(O)COc1ccc(O)cc1)N1CCOCC1 (configuration not stated)	class 0
CCCCCC1Nc2cc(C(F)(F)F)c(S(N)(=O)=O)cc2S(=O)(=O)N1 (configuration not stated)	class 0
CCCCc1nc(Cl)c(CO)n1Cc1ccc(-c2ccccc2-c2nn[nH]n2)cc1	class 0

---

# Assay text: TOX21_p53_BLA_p3_viability: Viability Assessment in the Tox21 HCT-116 p53 Agonism Beta-lactamase Assay, Phase 3 (AID 2283593);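 also: cells exposed to compound for 16 h before reading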
Inconclusive results are not listed. Activity calls are given as the source filed them. Rule for the calls: active = hit-call score of the fitted dose curve at least 0.9, where 1 is the maximum; inconclusive = response in the unintended direction; inactive = score below 0.9.

Compound	outcome
CC(=O)Nc1ccc(S(=O)(=O)Nc2ccc([N+](=O)[O-])cc2)cc1	inactive
NC(=O)NS(=O)(=O)c1ccc(N)cc1	inactive
CCCCCCCCCCOCC(O)CN (configuration not stated)	inactive
O=C1NCCN1	inactive
O=C(N/N=C/c1ccccc1O)c1ccncc1	inactive
Nc1cc(Cl)c(NC2=NCCN2)c(Cl)c1	inactive
CCOc1cc(-c2nccc3cc(OC)c(OC)cc23)cc(OCC)c1OCC	inactive

---

# Assay text: TOX21_p53_BLA_p4_viability: Viability Assessment in the Tox21 HCT-116 p53 Agonism Beta-lactamase Assay, Phase 4 (AID 2283597);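 also: hits lower the luminescence signal meaning cytotoxicity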
Inconclusive results are not listed. Active and inactive are the calls of the source. How the source made its calls: active means hit-call score of the fitted dose curve at least 0.9, where 1 is the maximum; inconclusive means response in the unintended direction; inactive means score below 0.9.
Possible outcomes: active, inactive

Compound	Assigned class
CC1(S(=O)(=O)O)CC(=O)c2ccccc2C1=O (stereo unspecified)	inactive
CCN1CCC[C@H]1CNC(=O)c1c(O)c(Cl)cc(Cl)c1OC	inactive
NC(=O)n1c(O)c(C(=O)c2cccs2)c2cc(Cl)ccc21	inactive
OCC1O[C@@H](O[C@@H]2C(CO)OC(O)C(O)C2O)C(O)C(O)C1O (stereo partly specified)	inactive
Nc1ccncc1N	inactive
CCOC(=O)c1cccc(N)c1	inactive
Cc1cc2c(C(C)C)c(O)c(O)c(C=O)c2c(O)c1-c1c(C)cc2c(C(C)C)c(O)c(O)c(C=O)c2c1O	active
C=C1c2c(Cl)ccc(O)c2C(O)=C2C(=O)[C@]3(O)C(O)=C(C(N)=O)C(=O)[C@@H](N(C)C)[C@@H]3[C@@H](O)[C@H]12	inactive
CCCCC1C(=O)N(c2ccccc2)N(c2ccc(O)cc2)C1=O (stereo unspecified)	active
Cn1c(O)c(N=NC(N)=S)c2ccccc21	inactive
O	inactive

---

# Assay text: TOX21_p53_BLA_p4_viability: Viability Assessment in the Tox21 HCT-116 p53 Agonism Beta-lactamase Assay, Phase 4 (AID 2283597);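 also: hits lower the luminescence signal meaning cytotoxicity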
Inconclusive results are not listed. Active and inactive are the calls of the source. Rule for the calls: active = hit-call score of the fitted dose curve at least 0.9, where 1 is the maximum; inconclusive = response in the unintended direction; inactive = score below 0.9.
Classes used: active, inactive

Compound	Assigned class
CC1=C(/C=C/C(C)=C/C=C/C(C)=C\C=O)C(C)(C)CCC1	active
CCCCOC(=O)COc1ccc(Cl)cc1Cl	inactive
CC(C(=O)O)c1ccc(C2CCCCC2)c2ccccc12 (stereo not given)	active
CCN(CC)C(=O)c1cccnc1	inactive
C[C@@H]1C[C@H]2[C@@H]3C[C@H](F)C4=CC(=O)C=C[C@]4(C)[C@@]3(Cl)[C@@H](O)C[C@]2(C)[C@H]1C(=O)COC(=O)C(C)(C)C	inactive

---

# Read-out: Interferon-gamma inducible Protein 10 (IP10), CXCL10 (gene 3627)
# Assay text: BSK_BE3C_IP10: BioMAP Diversity Plus: BE3C Assay for Interferon-gamma inducible Protein 10 (IP10) Biomarker Activity (AID 2283034)
# Protocol conditions: primary human bronchial epithelial cells; actives raise or lower the signal
Active and inactive are the calls of the source. The calls were made as follows: active = hit-call score of the fitted dose curve at least 0.9, where 1 is the maximum; inactive = score below 0.9.
Classes used: t (active), f (inactive)

Compound	Assigned class
CCCCC(CC)COC(=O)C=Cc1ccc(OC)cc1 (configuration not stated)	f
COc1ccccc1Oc1c(NS(=O)(=O)c2ccc(C(C)(C)C)cc2)nc(-c2ncccn2)nc1OCCO	f
C1CN(CCOCCN2CCOCC2)CCO1	f
CCCCCCCCCC/C=C/C1CC(=O)OC1=O (configuration not stated)	t
CCC[Si](OC(C)=O)(OC(C)=O)OC(C)=O	f
CC[N+](CC)(CC(=O)Nc1c(C)cccc1C)Cc1ccccc1	f
COc1cc(CNC(=O)CCCC/C=C/C(C)C)ccc1O	f
CC[N+](CC)(CC(=O)Nc1c(C)cccc1C)Cc1ccccc1 (tested in a mixture with another compound)	f
CN(C)CCC(c1ccc(Cl)cc1)c1ccccn1 (configuration not stated)	f
CC(C)CC(=O)CC(C)CC(C)C (configuration not stated)	t
Cc1cc(-n2nc3ccc(Cl)cc3n2)c(O)c(C(C)(C)C)c1	f
Oc1cccc2ccccc12	f

---

# Assay text: CCTE_Shafer_MEA_dev_per_network_spike_spike_number_mean: CCTE's Neural Network Formation Assay for Mean Number of Spikes in a Network Spike, Shafer Lab (AID 2284053)
Calls of active or inactive are those of the source. The calls were made as follows: active = hit-call score of the fitted dose curve at least 0.9, where 1 is the maximum; inactive = score below 0.9.
Outcomes: active, inactive

Molecule	Assigned class
C[C@H](CS)C(=O)N1CCC[C@H]1C(=O)O	inactive
c1cc2ccc3ccc4ccc5cccc6c(c1)c2c3c4c56	inactive
CC1(C)S[C@@H]2[C@H](NC(=O)[C@H](N)c3ccc(O)cc3)C(=O)N2[C@H]1C(=O)O	inactive
NC(N)=Nc1nc(CSCCC(N)=NS(N)(=O)=O)cs1	inactive
C[C@@H]1C[C@H]2[C@@H]3CCC4=CC(=O)C=C[C@]4(C)[C@@]3(F)[C@@H](O)C[C@]2(C)[C@@]1(O)C(=O)CO	inactive
CC1(C)S[C@@H]2[C@H](NC(=O)[C@H](N)c3ccccc3)C(=O)N2[C@H]1C(=O)O	inactive
CN(C)CCC(c1ccc(Cl)cc1)c1ccccn1 (stereo unspecified)	inactive
Cc1c(O)cccc1C(=O)N[C@@H](CSc1ccccc1)[C@H](O)CN1C[C@H]2CCCC[C@H]2C[C@H]1C(=O)NC(C)(C)C	active
CC(C)(C)NCC(O)c1cc(O)cc(O)c1 (stereo unspecified)	inactive
c1ccc2cc3c4ccccc4c4ccccc4c3cc2c1	inactive
[Cl-].[Cl-].[NH2-].[NH2-].[Pt+4]	inactive

---

# Assay text: TOX21_p53_BLA_p2_viability: Viability Assessment in the Tox21 HCT-116 p53 Agonism Beta-lactamase Assay, Phase 2 (AID 2283591);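 also: compound exposure lasted 16 h at 37 °C; actives lower the ATP signal meaning cytotoxicity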
Results filed as inconclusive are left out. Calls of active or inactive are those of the source. How the source made its calls: active means hit-call score of the fitted dose curve at least 0.9, where 1 is the maximum; inconclusive means response in the unintended direction; inactive means score below 0.9. *1 amine or outer side, *2 acyl side, *3 side chain or, on linkers, in order; H or OH if unused. Where a SMILES comes first, the peptide text is derived from it. Bridges are numbered along the chain shown (N, C = ends). [ ]: non-standard residue; d: D form. The star is where a group is joined. X3 = NC1=N[C@@H]([C@H](N[*:1])C(=O)[*:2])C[C@H](O)N1; ΔAla(Z-3-ureido) = NC(=O)N/C=C(\N)C(=O)O; β3hOrn = NCCC[C@H](N)CC(=O)*; Dap = NC[C@H](N)C(=O)O
Classes used: Yes (active), No (inactive)

Compound	Assigned class
CCOc1ccc(NC(=S)Nc2ccc(OCC)cc2)cc1	No
N#Cc1c(N(CC(=O)O)CC(=O)O)sc(C(=O)O)c1CC(=O)O	No
CCCNCC(O)COc1ccccc1C(=O)CCc1ccccc1 (stereo not drawn)	No
O=C=Nc1ccc(Cc2ccc(N=C=O)cc2)cc1	No
C=CCCCCCCCCCCCCCCCC	No
CO[C@H]1C[C@H](O[C@H]2[C@H](C)O[C@@H](O[C@@H]3/C(C)=C/C[C@@H]4C[C@@H](C[C@]5(C=C[C@H](C)[C@@H](C6CCCCC6)O5)O4)OC(=O)[C@@H]4C=C(C)[C@@H](O)[C@H]5OC/C(=C\C=C\[C@@H]3C)[C@]54O)C[C@@H]2OC)O[C@@H](C)[C@@H]1O	Yes
CC(C)(C)CC(=O)OCC(=O)[C@@]12OC(C)(C)O[C@@H]1C[C@H]1[C@@H]3CCC4=CC(=O)C=C[C@]4(C)[C@@]3(F)[C@@H](O)C[C@@]12C	No
CC(CO)(CO)CO	No
C[C@H]1C[C@H]2[C@@H]3CCC4=CC(=O)C=C[C@]4(C)[C@@]3(F)[C@@H](O)C[C@]2(C)[C@@]1(O)C(=O)CO	No
CN1CCN(C(=O)C2CCCCC2)CC1	No
NS(=O)(=O)c1cc(Cl)c(Cl)c(S(N)(=O)=O)c1	No
CCCC(CCC)C(=O)OC1C[C@H]2CC[C@@H](C1)[N+]2(C)C (stereo partly drawn)	No
CCOC(=O)C(C)O (stereo not drawn)	No
CC(C)(C(=O)c1cccnc1)c1cccnc1	No
Nc1[nH]c(=O)ncc1F	No
Cc1c(C(C)C)c(=O)n(-c2ccccc2)n1C	No
O=C(OCCO)c1ccccc1O	No
CN(C)CCCNCCC#N	No
Nc1nc(-c2ccccc2)c(Br)c(=O)[nH]1	No
O=c1[nH]c(=O)n([C@H]2C[C@H](O)[C@@H](CO)O2)cc1F	No
CCC(=O)OC/C=C/c1ccccc1	No
Cc1ccc(/C=N/n2c(-c3ccccc3)csc2=S)cc1	No
Clc1ccc(C(Cn2ccnc2)OCc2c(Cl)cccc2Cl)c(Cl)c1 (stereo not drawn)	No
Cc1c(C)c2c(c(C)c1OC(=O)CCC(=O)OCCO)CCC(C)(CCCC(C)CCCC(C)CCCC(C)C)O2 (stereo not drawn)	No
CC(C)C[C@H](NC(=O)CNC(=O)[C@H](Cc1ccc(O)cc1)NC(=O)[C@H](CO)NC(=O)[C@H](Cc1c[nH]c2ccccc12)NC(=O)[C@H](Cc1cnc[nH]1)NC(=O)[C@@H]1CCC(=O)N1)C(=O)N[C@@H](CCCN=C(N)N)C(=O)N1CCC[C@H]1C(=O)NCC(N)=O (stereo in doubt)	No
CC1(C)[C@@H](O[C@H]2O[C@H](C(=O)O)[C@@H](O)[C@H](O)[C@H]2O[C@@H]2O[C@H](C(=O)O)[C@@H](O)[C@H](O)[C@H]2O)CC[C@]2(C)[C@H]3C(=O)C=C4[C@@H]5C[C@@](C)(C(=O)O)CC[C@]5(C)CC[C@@]4(C)[C@]3(C)CC[C@@H]12	No
CC(=O)Nc1cccc(O)c1	No
NCCC[C@H](N)CC(=O)N[C@H]1CNC(=O)[C@H]([C@H]2C[C@H](O)NC(N)=N2)NC(=O)/C(=C/NC(N)=O)NC(=O)[C@H](CO)NC(=O)[C@H](CO)NC1=O (β3hOrn-[Dap]SS[ΔAla(Z-3-ureido)][X3]; lactam 1-C)	No
CC1=CC(=C(c2ccc(N)cc2)c2ccc(N)cc2)C=CC1=N	No
C/C=C1\NC(=O)[C@H]2CSSCC/C=C/[C@H](CC(=O)N[C@H](C(C)C)C(=O)N2)OC(=O)C(C(C)C)NC1=O (stereo partly drawn)	Yes
CC[N+](CC)(CCNC(=O)C(=O)NCC[N+](CC)(CC)Cc1ccccc1Cl)Cc1ccccc1Cl	No
[O]=[Zr]	No
O=[N+]([O-])c1cccc(C(F)(F)F)c1	No
CCC(C)n1ncn(-c2ccc(N3CCN(c4ccc(OC[C@H]5CO[C@](Cn6cncn6)(c6ccc(Cl)cc6Cl)O5)cc4)CC3)cc2)c1=O (stereo partly drawn)	No
Cc1ccnc(N)c1	No
Brc1cc(Oc2cc(Br)c(Br)c(Br)c2Br)c(Br)c(Br)c1Br	No
CCCCCCCCCCCCCCCCC(C(=O)O)C(O)(CC(=O)O)C(=O)O (stereo not drawn)	No
CCCCC1C(=O)N(c2ccccc2)N(c2ccc(O)cc2)C1=O (stereo not drawn)	Yes

Value source: PubChem BioAssay (EPA / NIEHS)
